All values here come from BindingDB's records for doi:10.1016/s0028-3908(96)00171-2.

Target Under Test: 5-hydroxytryptamine receptor 6 (Homo sapiens)
Sequence (P50406 whole entry): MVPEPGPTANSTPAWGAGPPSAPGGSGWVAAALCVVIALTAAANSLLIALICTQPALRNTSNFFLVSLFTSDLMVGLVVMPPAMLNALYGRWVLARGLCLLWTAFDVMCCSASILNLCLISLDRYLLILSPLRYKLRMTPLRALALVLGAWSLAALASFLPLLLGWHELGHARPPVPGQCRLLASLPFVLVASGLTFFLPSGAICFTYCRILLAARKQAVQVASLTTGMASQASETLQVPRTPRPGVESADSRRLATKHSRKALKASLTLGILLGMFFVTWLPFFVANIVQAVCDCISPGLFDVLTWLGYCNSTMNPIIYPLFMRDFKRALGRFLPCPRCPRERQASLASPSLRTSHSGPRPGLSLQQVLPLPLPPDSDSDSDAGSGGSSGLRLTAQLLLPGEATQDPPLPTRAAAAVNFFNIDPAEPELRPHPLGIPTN
Value Type: pKi
For clarity, pKi is expressed as the negative log10 of concentration in mol/L.

Req: What value of measured pKi is listed for CC(N)Cc1c[nH]c2ccc(OCc3cccs3)cc12 (stereo unspecified) [NSC_5311036] ?
Resp: 6.40
